Measured inhibition in vivo at 100 mg/kg of individual entries
system: adjuvant induced polyarthritis; assay: Inhibition of adjuvant induced polyarthritis in rats (hind paw volume); assay type: in vivo, Sprague Dawley rat; conditions: Rattus norvegicus, 552 h; 100 mg/kg of body weight, daily oral, day 23; read-out: Inhibition % 23 days (increase of hind paw volume)
assay-metric: inhibition in vivo at 100 mg/kg

compound: CCCCCOC(=O)[C@H]1O[C@@H]1C(=O)O (relative stereo) [EP-144, n-amyl potassium epoxysuccinate]
assay-metric: inhibition in vivo at 100 mg/kg
result: 32.1%

compound: O=C(O)[C@@H]1O[C@H]1C(=O)OC1CCCC1 (relative stereo) [EP-26, cyclopentyl potassium epoxysuccinate]
assay-metric: inhibition in vivo at 100 mg/kg
result: 55.5%

compound: O=C(OCC1CCCO1)[C@@H]1O[C@H]1C(=O)OCC1CCCO1 (relative stereo) [EP-75]
assay-metric: inhibition in vivo at 100 mg/kg
result: 41%

compound: O=C(OCCCc1ccccc1)[C@H]1O[C@@H]1C(=O)OCCCc1ccccc1 (relative stereo) [EP-131, di-3'-phenylpropyl epoxysuccinate]
assay-metric: inhibition in vivo at 100 mg/kg
result: 49.2%

compound: O=C(O)[C@H]1O[C@@H]1C(=O)OCc1ccccc1 (relative stereo) [EP-143, benzyl potassium epoxysuccinate]
assay-metric: inhibition in vivo at 100 mg/kg
result: 35.6%

compound: O=C(OC1CCCCC1)[C@@H]1O[C@H]1C(=O)OC1CCCCC1 (relative stereo) [EP-1, dicyclohexyl epoxysuccinate]
assay-metric: inhibition in vivo at 100 mg/kg
result: 77%

* * *

# ID50 (amount of inhibitor for 50% inhibition) annotations
target: papain (Carica papaya, UniProt P00784); construct: purchased Sigma Chem. Co; test: Papain inhibitory activity (milk casein digestion); format: biochemical; details: papain 80 μg/ml 0.5 ml, cysteine, pH 6.8, 1% milk casein, 40° C., 10 minutes
assay-metric: ID50 (amount of inhibitor for 50% inhibition)

compound: O=C(OCc1ccccc1I)[C@@H]1O[C@H]1C(=O)OCc1ccccc1I (relative stereo) [EP-105, di-o-iodobenzyl epoxysuccinate]
result: 0.40 γ

compound: CCOC(=O)[C@H](CCCCNC(=O)OCc1ccccc1)NC(=O)C1OC1C(=O)[O-].[K+] (stereo partly shown) [EP-195]
result: 0.43 γ

compound: Cc1cccc(COC(=O)[C@@H]2O[C@H]2C(=O)O)c1Br (relative stereo) [EP-98]
result: 0.32 γ

compound: CCOC(=O)C1OC1C(=O)N1CCC[C@H]1C(=O)OCc1ccccc1 (stereo partly shown) [EP-152]
result: 48.20 γ

compound: Cc1ccccc1COC(=O)[C@@H]1O[C@H]1C(=O)OCc1ccccc1C (relative stereo) [EP-91, di-o-methylbenzyl epoxysuccinate]
result: 0.35 γ

compound: C[C@H]1CCCC[C@H]1OC(=O)[C@@H]1O[C@H]1C(=O)O (relative stereo) [EP-4]
result: 0.09 γ

compound: O=C(O)[C@@H]1O[C@H]1C(=O)OCc1ccc2c(c1)OCO2 (relative stereo) [EP-104]
result: 0.36 γ

compound: O=C(CNC(=O)C1OC1C(=O)OC1CCCC1Cl)OCc1ccccc1 (stereo not shown) [EP-213]
result: 6.75 γ

compound: C[C@H]1CC[C@H](OC(=O)[C@@H]2O[C@H]2C(=O)O)CC1 (relative stereo) [EP-16]
result: 0.08 γ

compound: CC1(C)C2CCC1(C)C(OC(=O)C1OC1C(=O)OC1CC3CCC1(C)C3(C)C)C2 (stereo not shown) [EP-53, dibornyl epoxysuccinate]
result: 0.45 γ

* * *

molecular target: papain (Carica papaya, UniProt P00784); construct: purchased Sigma Chem. Co; assay: Papain inhibitory activity (milk casein digestion); assay type: biochemical; details: papain 80 μg/ml 0.5 ml, cysteine, pH 6.8, 1% milk casein, 40° C., 10 minutes
Where a name gives a salt, the structure may show the parent alone.
ID50 (amount of inhibitor for 50% inhibition) by entry:
assay-metric: ID50 (amount of inhibitor for 50% inhibition)

compound: O=C(O)[C@@H]1O[C@H]1C(=O)OCC12CC3CC(CC(C3)C1)C2 (relative stereo)
result: 0.08 γ
--
compound: O=C(OC1CC1)[C@@H]1O[C@H]1C(=O)OC1CC1 (relative stereo) [EP-27, dicyclopropyl epoxysuccinate]
result: 20.00 γ
--
compound: O=C(NCCCC[C@H](NC(=O)C1OC1C(=O)O)C(=O)O)OCc1ccccc1 (stereo partly shown) [EP-176, dipotassium salt]
result: 1.06 γ
--
compound: COc1ccc(COC(=O)[C@@H]2O[C@H]2C(=O)OCc2ccc(OC)cc2)cc1 (relative stereo) [EP-101, di-p-methoxybenzyl epoxysuccinate]
result: 1.51 γ
--
compound: CCOC(=O)CCCNC(=O)[C@@H]1O[C@H]1C(=O)OCc1ccc(Cl)cc1 (relative stereo)
result: 10.58 γ
--
compound: O=C(O)[C@@H]1O[C@H]1C(=O)OCCC12CC3CC(CC(C3)C1)C2 (relative stereo)
result: 0.09 γ
--
compound: O=C(O[C@@H]1CCCC[C@H]1Cl)[C@@H]1O[C@H]1C(=O)O[C@@H]1CCCC[C@H]1Cl (relative stereo)
result: 2.25 γ
--
compound: COC(=O)[C@H](C)NC(=O)C1OC1C(=O)O[C@H]1CC[C@H](C)CC1 (stereo partly shown)
result: 3.55 γ
--
compound: O=C(OCc1ccc2c(c1)OCO2)[C@@H]1O[C@H]1C(=O)OCc1ccc2c(c1)OCO2 (relative stereo)
result: 1.06 γ
--
compound: O=C(OCc1ccc(Br)cc1)[C@@H]1O[C@H]1C(=O)OCc1ccc(Br)cc1 (relative stereo) [EP-113, di-p-bromobenzyl epoxysuccinate]
result: 0.99 γ
--
compound: CCCOC(=O)[C@H]1O[C@@H]1C(=O)O (relative stereo) [EP-138, n-propyl potassium epoxysuccinate]
result: 0.82 γ
--
compound: CCCOC(=O)[C@H]1O[C@@H]1C(=O)NCC(=O)OCc1ccccc1 (relative stereo)
result: 17.90 γ
--
compound: COC(=O)[C@H](CCSC)NC(=O)C1OC1C(=O)OCc1ccc2c(c1)OCO2 (stereo partly shown)
result: 0.70 γ
--
compound: O=C(OCCC1CCCC1)[C@@H]1O[C@H]1C(=O)OCCC1CCCC1 (relative stereo) [EP-59, di-2-cyclopentaneethyl epoxysuccinate]
result: 0.18 γ
--
compound: O=C(OCc1cccc(F)c1)[C@H]1O[C@@H]1C(=O)OCc1cccc(F)c1 (relative stereo) [EP-121, di-m-fluorobenzyl epoxysuccinate]
result: 0.46 γ
--
compound: O=C(O)[C@@H]1O[C@H]1C(=O)OCc1ccco1 (relative stereo) [EP-78, 2-furanmethyl potassium epoxysuccinate]
result: 0.54 γ
--
compound: O=C(OC1CCCCC1)[C@@H]1O[C@H]1C(=O)OC1CCCCC1 (relative stereo) [EP-1, dicyclohexyl epoxysuccinate]
result: 1.98 γ
--
compound: O=C(N[C@@H](CSCc1ccccc1)C(=O)OCc1ccccc1)C1OC1C(=O)OCc1ccccc1 (stereo partly shown)
result: 5.51 γ
--
compound: CCOC(=O)C1OC1C(=O)N[C@@H](CC(C)C)C(N)=O (stereo partly shown)
result: 0.50 γ
--
compound: C[C@H]1CC[C@@H](OC(=O)[C@@H]2O[C@H]2C(=O)O[C@H]2CC[C@@H](C)CC2)CC1 (relative stereo)
result: 1.79 γ
--
compound: COC(=O)[C@H](CCCNC(=N)N[N+](=O)[O-])NC(=O)C1OC1C(=O)OCc1ccccc1 (stereo partly shown)
result: 2.91 γ
--
compound: O=C(OCc1ccccc1F)[C@H]1O[C@@H]1C(=O)OCc1ccccc1F (relative stereo) [EP-123, di-o-fluorobenzyl epoxysuccinate]
result: 0.30 γ
--
compound: O=C(O)[C@H]1O[C@@H]1C(=O)OCc1ccccc1F (relative stereo) [EP-124, o-fluorobenzyl potassium epoxysuccinate]
result: 0.10 γ
--
compound: O=C(OC1CCCC1)[C@@H]1O[C@H]1C(=O)OC1CCCC1 (relative stereo) [EP-25, dicyclopentyl epoxysuccinate]
result: 3.03 γ
--
compound: O=C(O)[C@@H]1O[C@H]1C(=O)OCC1CC1 (relative stereo)
result: 0.34 γ
--
compound: O=C(OCc1cc(Cl)ccc1Cl)[C@H]1O[C@@H]1C(=O)OCc1cc(Cl)ccc1Cl (relative stereo) [EP-127, di-2',5'-dichlorobenzyl epoxysuccinate]
result: 2.00 γ
--
compound: CCOC(=O)C1OC1C(=O)N[C@@H](CCCCNC(=O)OCc1ccc(OC)cc1)C(=O)OCc1ccccc1 (stereo partly shown)
result: 26.50 γ
--
compound: O=C(O)C1OC1C(=O)OC1CC(Cl)CC(Cl)C1 (stereo not shown)
result: 0.09 γ

* * *

Biological target: papain (Carica papaya)
Construct: purchased Sigma Chem. Co
Sequence (P00784 134-345): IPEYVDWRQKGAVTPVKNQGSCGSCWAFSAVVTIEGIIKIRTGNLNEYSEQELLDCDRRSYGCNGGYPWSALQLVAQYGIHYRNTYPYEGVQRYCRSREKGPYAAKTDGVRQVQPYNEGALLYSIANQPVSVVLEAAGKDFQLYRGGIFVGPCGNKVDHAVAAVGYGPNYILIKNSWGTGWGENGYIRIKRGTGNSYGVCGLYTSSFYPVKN
Assay: Papain inhibitory activity (milk casein digestion)
Assay type: biochemical
Details: papain 80 μg/ml 0.5 ml, cysteine, pH 6.8, 1% milk casein, 40° C., 10 minutes
assay-metric: ID50 (amount of inhibitor for 50% inhibition)

compound: O=C(OCC1CC1)[C@@H]1O[C@H]1C(=O)OCC1CC1 (relative stereo) [EP-39, dicyclopropanemethyl epoxysuccinate]
target-of-assay: papain (Carica papaya)
result: 4.39 γ
--
compound: CCOC(=O)C1OC1C(=O)N[C@@H](CC(C)C)C(=O)OCC (stereo partly shown)
target-of-assay: papain (Carica papaya)
result: 0.39 γ
--
compound: CCOC(=O)C1OC1C(=O)N[C@@H](Cc1c[nH]c2ccccc12)C(=O)OCC (stereo partly shown)
target-of-assay: papain (Carica papaya)
result: 7.20 γ
--
compound: COC(=O)[C@H]1O[C@@H]1C(=O)O (relative stereo) [EP-135, methyl hydrogen epoxysuccinate]
target-of-assay: papain (Carica papaya)
result: 12.20 γ
--
compound: CC1CCC(OC(=O)C2OC2C(=O)OC2CCC(C)C2)C1 (stereo not shown)
target-of-assay: papain (Carica papaya)
result: 3.25 γ
--
compound: O=C(OC1C2CC3CC(C2)CC1C3)[C@@H]1O[C@H]1C(=O)OC1C2CC3CC(C2)CC1C3 (relative stereo) [EP-37, di-2-adamantyl epoxysuccinate]
target-of-assay: papain (Carica papaya)
result: 0.22 γ
--
compound: O=C(O)[C@H]1O[C@@H]1C(=O)OCc1cccc(Cl)c1 (relative stereo) [EP-110, m-chlorobenzyl potassium epoxysuccinate]
target-of-assay: papain (Carica papaya)
result: 0.24 γ
